- experimental_target: alpha 2C adrenergic receptor (Homo sapiens, UniProt P18825)
- Construct: expressed in transfected cells; host or cells: NIH-3T3 cells, transient cotransfection by calcium phosphate
- method: RSAT (Receptor Selection and Amplification Technology) assay, alpha 2C
- Type: cell-based
- condition_set: NIH-3T3 cells cotransfected with receptor and Gq/i5
Listed next: entries and their corresponding EC50.

>>> print(df.to_string())
                         compound       result
0  OCCNC(=S)NCc1c(F)cc(F)c(Cl)c1F  ≥ 210000 nM
1    OCCNC(=S)NCc1cc(Br)cc(Cl)c1F    > 2000 nM
2      OCCNC(=S)NCc1ccc(F)c(F)c1F  ≥ 210000 nM

For the next question, use this compound.
Exam item: What value of EC50 has been reported for the following compound? `COc1cccc(CNC(=S)NCCO)c1F`
Marked response: > 3000 nM

* * *

- experimental_target: alpha 2B adrenergic receptor (Homo sapiens)
- Construct: expressed in transfected cells; host or cells: NIH-3T3 cells, transient cotransfection by calcium phosphate
- Sequence (P18089 1-450): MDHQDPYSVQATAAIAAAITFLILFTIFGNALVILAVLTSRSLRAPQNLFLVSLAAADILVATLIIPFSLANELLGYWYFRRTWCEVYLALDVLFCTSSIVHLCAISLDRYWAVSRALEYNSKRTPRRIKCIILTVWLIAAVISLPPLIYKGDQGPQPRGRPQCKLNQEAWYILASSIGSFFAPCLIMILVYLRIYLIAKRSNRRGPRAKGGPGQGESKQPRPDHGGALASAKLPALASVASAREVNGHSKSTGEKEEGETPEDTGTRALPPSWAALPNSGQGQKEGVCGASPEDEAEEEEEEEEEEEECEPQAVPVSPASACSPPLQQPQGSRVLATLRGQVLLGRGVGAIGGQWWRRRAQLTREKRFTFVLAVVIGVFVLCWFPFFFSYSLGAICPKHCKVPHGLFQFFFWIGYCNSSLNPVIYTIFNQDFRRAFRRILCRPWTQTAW
- method: RSAT (Receptor Selection and Amplification Technology) assay, alpha 2B
- Format: cell-based
- condition_set: NIH-3T3 cells cotransfected with receptor and Gq/i5
parameter_measured: log10(EC50) (log10 of the value in nM)
On a log10 scale: recorded EC50, unit nM.

Some compounds with known log10(EC50) results, for comparison:
                        compound                       experimental_target  parameter_measured  quantitative_result
0        OCCNC(=S)NCc1c(F)cccc1I  alpha 2B adrenergic receptor (Homo sapiens)         log10(EC50)                 2.15
1  OCCNC(=S)NCc1c(F)cc(F)c(F)c1F  alpha 2B adrenergic receptor (Homo sapiens)         log10(EC50)                 3.31

Pending compound:
Exam item: # log10(EC50) lookup, item `OCCNC(=S)NCc1cc(Br)cc(Br)c1F`
Marked response: 2.06

* * *

Property: EC50; scope: individual compounds
- experimental_target: alpha 2C adrenergic receptor (Homo sapiens)
- Construct: expressed in transfected cells; host or cells: NIH-3T3 cells, transient cotransfection by calcium phosphate
- Sequence (P18825 1-462): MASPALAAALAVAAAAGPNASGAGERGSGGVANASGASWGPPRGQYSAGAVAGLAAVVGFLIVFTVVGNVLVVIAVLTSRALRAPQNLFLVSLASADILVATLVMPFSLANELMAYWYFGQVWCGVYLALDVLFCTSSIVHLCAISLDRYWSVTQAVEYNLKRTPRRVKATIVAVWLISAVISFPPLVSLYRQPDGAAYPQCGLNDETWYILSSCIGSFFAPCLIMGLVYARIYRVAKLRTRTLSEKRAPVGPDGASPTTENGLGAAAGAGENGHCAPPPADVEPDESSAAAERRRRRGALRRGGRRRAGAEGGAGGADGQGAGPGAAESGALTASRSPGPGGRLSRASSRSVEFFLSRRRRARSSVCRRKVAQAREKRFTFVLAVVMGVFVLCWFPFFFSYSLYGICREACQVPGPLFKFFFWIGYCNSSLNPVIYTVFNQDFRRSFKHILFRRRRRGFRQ
- method: RSAT (Receptor Selection and Amplification Technology) assay, alpha 2C
- Format: cell-based
- condition_set: NIH-3T3 cells cotransfected with receptor and Gq/i5

In [3]: df
Out[3]:
                        compound  parameter_measured       result
0  OCCNC(=S)NCc1cccc(C(F)(F)F)c1                EC50  ≥ 210000 nM

Turning now to a further record.
Exam item: Reported EC50, compound `COc1cccc(CNC(=S)NCCO)c1` : ____
Marked response: ≥ 210000 nM

These data points were gathered from patent US6545182B2.
